molecular target: furin, P09958; assay: furin cleavage Z-score vs untreated control; higher = more cleavage, active = 3.5 or more, inactive = 1 or less, 8 variable residues between constant flanks; details: 15 min;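 further: purified furin at 1:10 enzyme:substrate in 50 mM HEPES pH 7.5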
Sequence (P09958 whole entry): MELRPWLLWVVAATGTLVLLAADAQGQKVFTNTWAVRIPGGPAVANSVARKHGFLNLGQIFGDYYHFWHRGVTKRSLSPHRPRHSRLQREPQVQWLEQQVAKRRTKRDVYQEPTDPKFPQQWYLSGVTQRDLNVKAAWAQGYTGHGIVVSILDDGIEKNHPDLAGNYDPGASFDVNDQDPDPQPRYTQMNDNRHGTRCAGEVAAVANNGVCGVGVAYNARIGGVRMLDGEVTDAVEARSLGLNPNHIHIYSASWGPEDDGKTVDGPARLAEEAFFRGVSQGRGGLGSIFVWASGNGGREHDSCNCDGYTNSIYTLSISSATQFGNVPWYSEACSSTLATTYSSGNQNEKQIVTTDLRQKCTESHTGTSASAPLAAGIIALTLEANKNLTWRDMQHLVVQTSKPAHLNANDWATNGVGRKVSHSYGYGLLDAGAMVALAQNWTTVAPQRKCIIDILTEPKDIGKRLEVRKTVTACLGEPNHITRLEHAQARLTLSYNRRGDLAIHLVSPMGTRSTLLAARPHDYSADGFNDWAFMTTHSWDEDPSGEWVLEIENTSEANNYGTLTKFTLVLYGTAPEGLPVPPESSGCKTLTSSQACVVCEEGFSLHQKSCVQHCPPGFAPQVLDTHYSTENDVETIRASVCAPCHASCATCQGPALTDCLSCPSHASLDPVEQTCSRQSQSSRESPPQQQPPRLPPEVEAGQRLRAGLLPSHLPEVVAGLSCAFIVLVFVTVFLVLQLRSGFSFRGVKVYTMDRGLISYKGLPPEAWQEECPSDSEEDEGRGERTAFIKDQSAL
The list shows a part of the results. The true hit rate is not given.
Returns one of label 1 or label 0; label 1 when furin cleavage Z-score is >= 2.

- SEQUENCE RECORD: "CANKSRSARSAGNASASA [FS-467]"
  LABEL: "label 1"
- SEQUENCE RECORD: "CARSRKAVDWAGNASASA [FS-2238]"
  LABEL: "label 1"
- SEQUENCE RECORD: "CARSRRAVSVAGNASASA [FS-2815]"
  LABEL: "label 1"
- SEQUENCE RECORD: "CASQGRRRRPAGNASASA [FS-194]"
  LABEL: "label 0"
- SEQUENCE RECORD: "CARSFRSVTSAGNASASA [FS-3234]"
  LABEL: "label 0"
- SEQUENCE RECORD: "CARSRRAATSAGNASASA [FS-3092]"
  LABEL: "label 1"
- SEQUENCE RECORD: "CAHSYSPGEIAGNASASA [HC1608]"
  LABEL: "label 0"
- SEQUENCE RECORD: "CALAVFGPLWAGNASASA [HC607]"
  LABEL: "label 0"
- SEQUENCE RECORD: "CARSRKIAESAGNASASA [FS-2526]"
  LABEL: "label 0"
- SEQUENCE RECORD: "CARSNRDVFVAGNASASA [FS-1975]"
  LABEL: "label 0"
- SEQUENCE RECORD: "CARSRRTWELAGNASASA [FS-3265]"
  LABEL: "label 1"
- SEQUENCE RECORD: "CARSRNLGKVAGNASASA [HC218]"
  LABEL: "label 1"
- SEQUENCE RECORD: "CAMEECSQHEAGNASASA [HC1772]"
  LABEL: "label 0"
- SEQUENCE RECORD: "CASKVRKSRSAGNASASA [FS-1166]"
  LABEL: "label 1"
- SEQUENCE RECORD: "CARSRRTICVAGNASASA [FS-3239]"
  LABEL: "label 0"

Where do the numbers come from? From the supplement of paper PMC3545927.
